- assayedTarget: Tyrosine-protein kinase FRK (Homo sapiens) (UniProt P42685);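 note: reported percent inhibition is a mean value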
- Sequence (P42685 whole entry): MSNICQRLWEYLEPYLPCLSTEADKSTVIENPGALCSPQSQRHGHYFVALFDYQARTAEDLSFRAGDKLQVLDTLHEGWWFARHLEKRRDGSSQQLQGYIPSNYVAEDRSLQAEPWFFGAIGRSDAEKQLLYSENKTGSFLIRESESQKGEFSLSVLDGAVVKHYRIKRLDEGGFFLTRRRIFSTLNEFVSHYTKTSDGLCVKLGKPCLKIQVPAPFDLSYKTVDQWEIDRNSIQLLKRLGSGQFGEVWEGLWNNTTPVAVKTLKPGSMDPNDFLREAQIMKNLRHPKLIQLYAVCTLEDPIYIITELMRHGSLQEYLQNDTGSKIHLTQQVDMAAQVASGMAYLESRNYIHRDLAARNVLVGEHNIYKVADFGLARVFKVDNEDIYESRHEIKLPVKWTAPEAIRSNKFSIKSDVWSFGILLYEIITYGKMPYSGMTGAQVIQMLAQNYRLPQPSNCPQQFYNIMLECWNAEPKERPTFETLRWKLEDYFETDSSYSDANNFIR
- conditionDetails: at 1 µM
Parameter threshold = 4%. Response is Y when inhibition meets or exceeds it, else N.

1. Cc1c2ccc(N(C)c3ccnc(Nc4cccc(S(N)(=O)=O)c4)n3)cc2nn1C = Y
2. COc1cccc(Nc2nccc(-c3cnn4ncccc34)n2)c1 = Y

Now turn to the next compound.
Request: State whether the measured inhibition reaches 4%, counting equality as reaching it, for O=C1Nc2ccccc2/C1=C1\CCc2cc(O)ccc21
Result: N

* * *

- assayedTarget: Testis-specific serine/threonine-protein kinase 2 (Homo sapiens) (UniProt Q96PF2);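 note: each value is the mean percent inhibition of TSSK2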
- Sequence (Q96PF2 whole entry): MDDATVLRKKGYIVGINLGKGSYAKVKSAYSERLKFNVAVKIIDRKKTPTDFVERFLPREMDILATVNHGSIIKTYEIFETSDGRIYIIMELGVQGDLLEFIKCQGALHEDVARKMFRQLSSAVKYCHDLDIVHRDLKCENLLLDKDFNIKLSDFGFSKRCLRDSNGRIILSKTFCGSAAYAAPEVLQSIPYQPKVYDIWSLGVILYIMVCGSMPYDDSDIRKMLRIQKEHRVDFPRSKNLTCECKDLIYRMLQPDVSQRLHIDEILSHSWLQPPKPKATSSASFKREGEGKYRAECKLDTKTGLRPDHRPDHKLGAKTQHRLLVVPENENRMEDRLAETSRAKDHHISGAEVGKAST
- conditionDetails: at 1 µM
Would you kindly list inhibition for each of these compounds?
Numbers only, in %.

1. COc1cccc(Nc2nccc(-c3cnn4ncccc34)n2)c1 = 0.62
2. COc1cc(N2CCN(C(C)C)CC2)ccc1Nc1nc(Nc2cccc(F)c2C(=O)O)c2cc[nH]c2n1 = 49.2
3. NS(=O)(=O)c1cccc(N/C=C2\C(=O)Nc3ccccc32)c1 = 1.39
4. CCS(=O)(=O)c1ccc(OC)c(Nc2ncc(-c3cccc(C(C)=O)c3)o2)c1 = 1.57
5. CNC(=O)c1cncc(/C=C/c2ccccc2C)c1 = 2.6

Required: inhibition, one value per compound below.
1. CCOc1ccc2c(-c3ccnc(Nc4cc(OC)cc(C(F)(F)F)c4)n3)cnn2n1
2. O=C(O[C@H]1CN[C@H](C#Cc2cc3ncnc(Nc4ccc(OCc5cccc(F)c5)c(Cl)c4)c3s2)C1)N1CCOCC1
3. NS(=O)(=O)c1ccc(N/N=C2\C(=O)Nc3ccc(C(=O)NCc4ccncc4)cc32)cc1

Result:
1: -0.73; 2: 5.27; 3: 2.67

* * *

- assayedTarget: Serine/threonine-protein kinase MARK1 (Homo sapiens) (UniProt Q9P0L2);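 note: reported values are mean percent inhibition of MARK1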
- Sequence (Q9P0L2 whole entry, looked up): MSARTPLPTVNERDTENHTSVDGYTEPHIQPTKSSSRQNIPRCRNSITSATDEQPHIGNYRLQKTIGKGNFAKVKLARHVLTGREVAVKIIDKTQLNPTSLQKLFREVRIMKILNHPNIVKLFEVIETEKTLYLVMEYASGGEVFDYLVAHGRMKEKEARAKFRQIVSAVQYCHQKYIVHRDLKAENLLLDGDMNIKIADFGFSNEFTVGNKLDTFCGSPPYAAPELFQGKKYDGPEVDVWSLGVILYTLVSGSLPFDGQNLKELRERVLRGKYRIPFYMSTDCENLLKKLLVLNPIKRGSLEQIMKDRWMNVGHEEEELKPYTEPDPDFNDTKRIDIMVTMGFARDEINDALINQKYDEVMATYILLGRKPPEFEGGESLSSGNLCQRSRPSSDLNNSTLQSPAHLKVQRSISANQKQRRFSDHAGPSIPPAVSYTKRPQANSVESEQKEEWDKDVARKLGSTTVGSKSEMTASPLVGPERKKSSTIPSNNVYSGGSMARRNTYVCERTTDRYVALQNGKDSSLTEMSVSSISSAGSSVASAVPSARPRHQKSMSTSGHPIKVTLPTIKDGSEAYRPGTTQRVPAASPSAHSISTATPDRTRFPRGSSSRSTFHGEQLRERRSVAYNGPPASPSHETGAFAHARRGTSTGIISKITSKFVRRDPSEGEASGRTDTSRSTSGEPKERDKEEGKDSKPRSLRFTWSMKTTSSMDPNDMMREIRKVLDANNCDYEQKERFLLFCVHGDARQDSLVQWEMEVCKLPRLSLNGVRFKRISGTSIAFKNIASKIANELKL
- conditionDetails: at 1 µM
assayEndpoint: inhibition (%)
Give bare numbers, in %.

1. COc1c(C(N)=O)cc(-c2ccc(Cl)cc2)cc1-c1ccc(S(N)(=O)=O)cc1 = 1.61
2. COc1cc2c(cc1Nc1nc(Nc3cccc(F)c3C(N)=O)c3cc[nH]c3n1)N(C(=O)CN1CCN(C(C)C)CC1)CC2 = 3.35
3. COc1cc(N2CCN(C(C)C)CC2)ccc1Nc1nc(Nc2cccc3ncccc23)c2cc[nH]c2n1 = 2.18
4. CS(=O)(=O)CCNCc1ccoc1-c1ccc2ncnc(Nc3ccc(OCc4ccccc4)cc3)c2c1 = 1.23
5. CNC(=O)c1sc(-n2cnc3cc(OC)c(OC)cc32)cc1OCc1ccccc1C(F)(F)F = 4.3

# map each compound to its inhibition
1. FC(F)(F)CNc1nccc(-c2cnn3ncccc23)n1
2. CS(=O)(=O)Nc1ccc(-c2cc(-c3ccccc3)cc(C(N)=O)c2N)cc1
3. CCS(=O)(=O)c1ccc(OC)c(Nc2ncc(-c3cccc(F)c3)o2)c1
4. CCn1c(-c2nonc2N)nc2cncc(C(=O)NCCNC)c21
5. O=C(O[C@H]1CN[C@H](C#Cc2cc3ncnc(Nc4ccc5c(cnn5Cc5ccccc5)c4)c3s2)C1)N1CCOCC1

Result:
[4.46, 1.47, 4.44, 14.9, 3.97]

Request: Give reported inhibition for c1cnn2ncc(-c3ccnc(NCCCN4CCOCC4)n3)c2c1 (Serine/threonine-protein kinase MARK1 (Homo sapiens) (UniProt Q9P0L2))
Result: 5.05

* * *

Kindly supply the reported inhibition values for the records listed here.
- assayedTarget: RAC-gamma serine/threonine-protein kinase (Homo sapiens) (UniProt Q9Y243)
- Sequence (Q9Y243 whole entry): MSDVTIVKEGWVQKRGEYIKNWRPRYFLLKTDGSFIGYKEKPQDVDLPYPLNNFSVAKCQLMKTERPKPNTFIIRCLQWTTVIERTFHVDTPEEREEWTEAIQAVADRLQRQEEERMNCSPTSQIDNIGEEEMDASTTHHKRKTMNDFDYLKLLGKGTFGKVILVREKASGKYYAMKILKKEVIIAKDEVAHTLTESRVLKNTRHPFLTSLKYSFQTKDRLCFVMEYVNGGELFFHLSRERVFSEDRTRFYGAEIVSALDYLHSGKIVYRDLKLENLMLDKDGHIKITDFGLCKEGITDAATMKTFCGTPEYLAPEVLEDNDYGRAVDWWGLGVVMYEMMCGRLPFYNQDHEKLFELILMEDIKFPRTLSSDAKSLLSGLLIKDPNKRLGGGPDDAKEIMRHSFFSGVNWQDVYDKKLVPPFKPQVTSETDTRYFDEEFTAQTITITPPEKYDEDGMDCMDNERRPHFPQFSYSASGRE
- conditionDetails: at 0.1 µM
- Description: GSK_PKIS: AKT3 mean inhibition at 0.1 uM [Nanosyn]
One number for each entry, in %.

Below are worked cases with known answers.
1. CS(=O)(=O)CCNCc1ccc(-c2ccc3ncnc(Nc4ccc(OCc5ccccc5)cc4)c3c2)o1 = 0.25
2. CCCNc1cccc(-n2ncc3c(N/N=C/c4ccncc4)ncnc32)c1 = -0.05
3. CC1=C(C(=O)Nc2ccc3[nH]ncc3c2)C(c2ccc(F)cc2)N=C(c2ccc(C(F)(F)F)nc2)N1 (stereo not given) = 1.44
4. CNC(=O)c1ncccc1Nc1nc(Nc2cc3c(cc2OC)CCCN3C(=O)CN(C)C)nc2[nH]ccc12 = 2.74
5. CS(=O)(=O)Nc1ccc(-c2cc(-c3ccccc3)cc(C(N)=O)c2N)cc1 = -0.36
6. CCS(=O)(=O)c1ccc(OC)c(Nc2ncc(-c3cccc(F)c3)o2)c1 = 2.02
7. NS(=O)(=O)c1cccc(N/C=C2\C(=O)Nc3ccccc32)c1 = 1.37
8. CCS(=O)(=O)c1ccc(OC)c(Nc2ncc(-c3cccc(C(C)=O)c3)o2)c1 = 1.01

Hello, I would appreciate it if you could give inhibition for each entry below.
1. c1ccc(-c2n[nH]cc2-c2ccnc(-c3ccc(OCCn4ccnc4)cc3)c2)nc1
2. Cc1cc(O)cc(C)c1/C=C/c1cncc(C(=O)OC(C)(C)C)c1
3. Cc1nnc(-c2cccc(-c3ccc(C(=O)NCC4CC4)cc3)c2)o1

Result:
1: -0.34; 2: 1.33; 3: 1.35

I have 4 molecules here; please give me inhibition for each one.
1. CCn1c(-c2nonc2N)nc2cncc(C(=O)NCCNC)c21
2. CC(C)c1ccc(-c2cc(-c3c[nH]nc3-c3ccccn3)ccn2)cc1
3. Cc1c2ccc(N(C)c3ccnc(Nc4cccc(S(N)(=O)=O)c4)n3)cc2nn1C
4. NS(=O)(=O)c1ccc(N/N=C2\C(=O)Nc3cccc(CCc4ccncc4)c32)cc1

Result:
4.31
1.01
-0.07
0.45

Hello, I would appreciate it if you could give inhibition for each entry below.
1. COc1cc(Nc2ncc(-c3ccccc3)o2)cc(OC)c1
2. COc1cc(N2CCN(C(C)C)CC2)ccc1Nc1nc(Nc2cccc(F)c2C(=O)O)c2cc[nH]c2n1
3. COc1ccccc1-c1cc(/C=C2\C(=O)Nc3ncc(Br)cc32)cc(Br)c1O
4. CS(=O)(=O)CCNCc1ccc(-c2ccc3ncnc(Nc4ccc(OCc5cccc(C(F)(F)F)c5)cc4)c3c2)o1
5. Cn1c(-c2nonc2N)nc2cnccc21

Result:
0.79
0.73
1.93
0.95
1.14

* * *

- assayedTarget: Epidermal growth factor receptor (Homo sapiens) (UniProt P00533)
- Sequence (P00533 whole entry): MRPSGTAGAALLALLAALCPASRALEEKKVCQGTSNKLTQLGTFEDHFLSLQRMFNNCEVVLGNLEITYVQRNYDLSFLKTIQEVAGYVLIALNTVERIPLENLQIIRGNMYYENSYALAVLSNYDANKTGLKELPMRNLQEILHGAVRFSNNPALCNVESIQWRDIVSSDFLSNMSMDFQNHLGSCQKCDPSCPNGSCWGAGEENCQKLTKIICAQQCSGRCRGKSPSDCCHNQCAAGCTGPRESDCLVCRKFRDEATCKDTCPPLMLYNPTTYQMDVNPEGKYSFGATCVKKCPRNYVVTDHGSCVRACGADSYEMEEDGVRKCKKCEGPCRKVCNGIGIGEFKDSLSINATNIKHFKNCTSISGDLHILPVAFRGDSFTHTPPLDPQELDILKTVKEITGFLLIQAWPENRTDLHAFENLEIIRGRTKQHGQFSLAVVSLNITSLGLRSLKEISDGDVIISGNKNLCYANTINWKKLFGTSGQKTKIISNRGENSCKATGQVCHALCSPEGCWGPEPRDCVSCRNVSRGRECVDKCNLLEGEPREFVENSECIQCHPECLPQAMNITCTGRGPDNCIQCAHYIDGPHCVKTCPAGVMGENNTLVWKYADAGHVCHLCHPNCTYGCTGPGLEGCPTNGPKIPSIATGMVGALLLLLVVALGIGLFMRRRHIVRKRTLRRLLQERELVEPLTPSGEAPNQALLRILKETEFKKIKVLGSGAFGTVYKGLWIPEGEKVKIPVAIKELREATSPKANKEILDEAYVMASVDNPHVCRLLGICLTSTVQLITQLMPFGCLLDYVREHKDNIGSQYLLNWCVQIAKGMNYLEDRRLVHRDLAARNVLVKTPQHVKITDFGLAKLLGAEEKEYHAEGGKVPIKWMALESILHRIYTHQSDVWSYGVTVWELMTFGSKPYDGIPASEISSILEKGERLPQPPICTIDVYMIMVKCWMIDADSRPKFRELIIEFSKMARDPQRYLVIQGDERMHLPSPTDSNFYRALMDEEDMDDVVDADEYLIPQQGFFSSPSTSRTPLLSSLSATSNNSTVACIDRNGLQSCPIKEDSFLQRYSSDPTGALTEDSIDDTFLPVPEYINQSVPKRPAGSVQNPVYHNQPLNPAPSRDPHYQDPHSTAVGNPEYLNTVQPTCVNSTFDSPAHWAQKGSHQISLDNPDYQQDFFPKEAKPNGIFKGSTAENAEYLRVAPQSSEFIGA
- conditionDetails: at 0.1 µM
- Description: GSK_PKIS: EGFR mean inhibition at 0.1 uM [Nanosyn]
assayEndpoint: inhibition (%)
Numbers only, in %.

1. CC1(C)CC(n2cnc(-c3ccc(F)cc3)c2-c2ccnc(N)n2)CC(C)(C)N1 = 0.38

Fill in inhibition for each of the 2 molecules listed.
1. N#Cc1ccc2c(-c3ccnc(NC4CC4)n3)c(-c3ccc(F)cc3)nn2c1
2. CCn1c(-c2nonc2N)nc2cncc(C(=O)NCCNC)c21

Result:
[1.52, 0.28]

* * *

- assayedTarget: Glycogen synthase kinase-3 beta (Homo sapiens) (UniProt P49841)
- Sequence (P49841 whole entry, looked up): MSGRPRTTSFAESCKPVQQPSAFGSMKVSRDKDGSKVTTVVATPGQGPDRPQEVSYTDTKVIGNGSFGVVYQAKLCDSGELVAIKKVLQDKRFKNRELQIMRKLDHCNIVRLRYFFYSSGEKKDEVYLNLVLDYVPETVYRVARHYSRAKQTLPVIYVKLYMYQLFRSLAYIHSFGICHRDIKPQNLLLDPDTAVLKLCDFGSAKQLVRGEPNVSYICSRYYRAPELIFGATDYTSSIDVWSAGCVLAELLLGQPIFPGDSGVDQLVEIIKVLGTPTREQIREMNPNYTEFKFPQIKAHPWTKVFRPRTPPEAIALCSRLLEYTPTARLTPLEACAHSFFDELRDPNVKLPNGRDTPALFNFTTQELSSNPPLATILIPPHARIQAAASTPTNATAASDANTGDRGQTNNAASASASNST
- conditionDetails: at 0.1 µM
assayEndpoint: inhibition (%)
One number for each entry, in %.

Some compounds with known inhibition results, for comparison:
1. NS(=O)(=O)c1ccc(N/N=C2\C(=O)Nc3cccc(CCc4ccncc4)c32)cc1 = 34.1
2. CNC(=O)c1sc(-n2cnc3cc(OC)c(OC)cc32)cc1OCc1ccccc1C(F)(F)F = 1.12
3. CS(=O)(=O)Nc1ccc(-c2cc(-c3ccccc3)cc(C(N)=O)c2N)cc1 = 0.94
4. COc1cc2c(cc1Nc1nc(Nc3cccc(F)c3C(N)=O)c3cc[nH]c3n1)N(C(=O)CN1CCN(C(C)C)CC1)CC2 = 0.46
5. O=C(O[C@H]1CN[C@H](C#Cc2cc3ncnc(Nc4ccc5c(ccn5Cc5cc(F)ccc5F)c4)c3s2)C1)N1CCOCC1 = 1.76
6. CC1(C)CC(n2cnc(-c3ccc(F)cc3)c2-c2ccnc(N)n2)CC(C)(C)N1 = 1.6
7. CC(C)c1ccc(-c2cc(-c3c[nH]nc3-c3ccccn3)ccn2)cc1 = -0.15

Now look at this one.
Request: # return inhibition of COC(=O)Nc1nc2cc(Oc3ccc(NC(=O)Nc4ccccc4)cc3)ccc2[nH]1 (system: Glycogen synthase kinase-3 beta (Homo sapiens) (UniProt P49841));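 note: values are mean percent inhibition of GSK3B activity, from the GSK Published Kinase Inhibitor Set (PKIS) screening dataset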
Result: 3.5

* * *

- assayedTarget: Mitogen-activated protein kinase 14 (Homo sapiens) (UniProt Q16539);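 note: values are mean percent inhibition of p38alpha kinase activity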
- Sequence (Q16539 whole entry): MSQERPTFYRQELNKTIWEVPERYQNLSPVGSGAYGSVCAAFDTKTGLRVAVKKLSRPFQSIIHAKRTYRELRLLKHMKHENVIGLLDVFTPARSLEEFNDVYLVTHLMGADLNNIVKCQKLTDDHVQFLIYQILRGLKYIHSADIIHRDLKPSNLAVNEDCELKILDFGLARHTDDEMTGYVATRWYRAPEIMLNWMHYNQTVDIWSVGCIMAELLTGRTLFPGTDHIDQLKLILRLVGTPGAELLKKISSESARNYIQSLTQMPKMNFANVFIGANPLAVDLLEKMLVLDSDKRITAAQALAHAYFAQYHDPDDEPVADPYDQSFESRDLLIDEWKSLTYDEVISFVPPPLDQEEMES
- conditionDetails: at 1 µM
Categorize each record by its inhibition using bucket A = under 7%, bucket B = from 7% up to 10%, bucket C = 10% and over

Worked cases, answers included:
1) N#Cc1ccc2c(-c3ccnc(NC4CC4)n3)c(-c3ccc(F)cc3)nn2c1 = bucket C
2) OCCCNc1nccc(-c2c(-c3ccc(F)cc3)nn3cc(C(F)(F)F)ccc23)n1 = bucket C
3) Cc1nnc(-c2cccc(-c3ccc(C(=O)NCC4CC4)cc3)c2)o1 = bucket C
4) COc1cc(Nc2ncc(-c3ccccc3)o2)cc(OC)c1 = bucket A

Request: Category lookup for the compound CS(=O)(=O)CCNCc1ccc(-c2ccc3ncnc(Nc4ccc(OCc5ccccc5)cc4)c3c2)o1
Result: bucket B

Request: Exercise: read the entry Cc1c2ccc(N(C)c3ccnc(Nc4cccc(S(N)(=O)=O)c4)n3)cc2nn1C and state which class it falls under.
Result: bucket C

Request: Lab log: O=C(O[C@H]1CN[C@H](C#Cc2cc3ncnc(Nc4ccc5c(ccn5Cc5cc(F)ccc5F)c4)c3s2)C1)N1CCOCC1 — assign inhibition category
Result: bucket B

Request: Lab log: CCn1c(-c2nonc2N)nc2cncc(C(=O)NCCNC)c21 — assign inhibition category
Result: bucket A

Request: Looking at NS(=O)(=O)c1cccc(N/C=C2\C(=O)Nc3ccccc32)c1 , which class would you pick?
Result: bucket C
